// data source = PubChem BioAssay (EPA / NIEHS)

read-out: Cytochrome P450 2B6 (Homo sapiens) (UniProt P20813); experiment: CLD_CYP2B6_6hr: CellzDirect (CLD) Gene Expression Assay for xenobiotic metabolism (CYP2B6) at 6 hours (AID 2283677);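 further: actives raise CYP2B6 transcript above DMSO baseline so AC50 marks an inducer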
Inconclusive results are not listed. Calls of active or inactive are those of the source. How the source made its calls: active means hit-call score of the fitted dose curve at least 0.9, where 1 is the maximum; inconclusive means response in the unintended direction; inactive means score below 0.9.
Labels: YES (active), NO (inactive)

{"COMPOUND": "O=C(NC(=O)c1c(F)cccc1F)Nc1ccc(OC(F)(F)C(F)OC(F)(F)F)c(Cl)c1 (stereo unspecified)", "CATEGORY": "NO"}
{"COMPOUND": "COP(=S)(OC)Oc1ccc([N+](=O)[O-])cc1", "CATEGORY": "YES"}
{"COMPOUND": "CC(C)N(C(=O)COc1nnc(C(F)(F)F)s1)c1ccc(F)cc1", "CATEGORY": "YES"}
{"COMPOUND": "CCOC1Oc2ccc(OS(C)(=O)=O)cc2C1(C)C (stereo unspecified)", "CATEGORY": "YES"}
{"COMPOUND": "CC1(c2ccc(Oc3ccccc3)cc2)OC(=O)N(Nc2ccccc2)C1=O (stereo unspecified)", "CATEGORY": "YES"}
{"COMPOUND": "CCCN(CCC)c1c([N+](=O)[O-])cc(C(F)(F)F)cc1[N+](=O)[O-]", "CATEGORY": "YES"}
{"COMPOUND": "CC[C@H](C)[C@H]1O[C@]2(C=C[C@@H]1C)C[C@@H]1C[C@@H](C/C=C(\\C)[C@@H](O[C@H]3C[C@H](OC)[C@@H](O[C@H]4C[C@H](OC)[C@@H](O)[C@H](C)O4)[C@H](C)O3)[C@@H](C)/C=C/C=C3\\CO[C@@H]4[C@H](O)C(C)=C[C@@H](C(=O)O1)[C@]34O)O2 (tested in a mixture with another compound)", "CATEGORY": "NO"}
{"COMPOUND": "O=S1OCC2C(CO1)C1(Cl)C(Cl)=C(Cl)C2(Cl)C1(Cl)Cl (stereo unspecified)", "CATEGORY": "YES"}
{"COMPOUND": "COc1cc(OC)nc(NC(=O)NS(=O)(=O)c2cc(NC=O)ccc2C(=O)N(C)C)n1", "CATEGORY": "NO"}
{"COMPOUND": "Cc1[nH]c(=O)n(C(C)(C)C)c(=O)c1Cl", "CATEGORY": "NO"}
{"COMPOUND": "O=S(=O)(O)C(F)(F)C(F)(F)C(F)(F)C(F)(F)C(F)(F)C(F)(F)C(F)(F)C(F)(F)F", "CATEGORY": "NO"}
